The entries below are paired with their reported remaining binding at 1 µM.
# System tested: LRRK2 (G2019S) (Homo sapiens, UniProt Q5S007, G2019S)
# Sequence (Q5S007 whole entry G2019S): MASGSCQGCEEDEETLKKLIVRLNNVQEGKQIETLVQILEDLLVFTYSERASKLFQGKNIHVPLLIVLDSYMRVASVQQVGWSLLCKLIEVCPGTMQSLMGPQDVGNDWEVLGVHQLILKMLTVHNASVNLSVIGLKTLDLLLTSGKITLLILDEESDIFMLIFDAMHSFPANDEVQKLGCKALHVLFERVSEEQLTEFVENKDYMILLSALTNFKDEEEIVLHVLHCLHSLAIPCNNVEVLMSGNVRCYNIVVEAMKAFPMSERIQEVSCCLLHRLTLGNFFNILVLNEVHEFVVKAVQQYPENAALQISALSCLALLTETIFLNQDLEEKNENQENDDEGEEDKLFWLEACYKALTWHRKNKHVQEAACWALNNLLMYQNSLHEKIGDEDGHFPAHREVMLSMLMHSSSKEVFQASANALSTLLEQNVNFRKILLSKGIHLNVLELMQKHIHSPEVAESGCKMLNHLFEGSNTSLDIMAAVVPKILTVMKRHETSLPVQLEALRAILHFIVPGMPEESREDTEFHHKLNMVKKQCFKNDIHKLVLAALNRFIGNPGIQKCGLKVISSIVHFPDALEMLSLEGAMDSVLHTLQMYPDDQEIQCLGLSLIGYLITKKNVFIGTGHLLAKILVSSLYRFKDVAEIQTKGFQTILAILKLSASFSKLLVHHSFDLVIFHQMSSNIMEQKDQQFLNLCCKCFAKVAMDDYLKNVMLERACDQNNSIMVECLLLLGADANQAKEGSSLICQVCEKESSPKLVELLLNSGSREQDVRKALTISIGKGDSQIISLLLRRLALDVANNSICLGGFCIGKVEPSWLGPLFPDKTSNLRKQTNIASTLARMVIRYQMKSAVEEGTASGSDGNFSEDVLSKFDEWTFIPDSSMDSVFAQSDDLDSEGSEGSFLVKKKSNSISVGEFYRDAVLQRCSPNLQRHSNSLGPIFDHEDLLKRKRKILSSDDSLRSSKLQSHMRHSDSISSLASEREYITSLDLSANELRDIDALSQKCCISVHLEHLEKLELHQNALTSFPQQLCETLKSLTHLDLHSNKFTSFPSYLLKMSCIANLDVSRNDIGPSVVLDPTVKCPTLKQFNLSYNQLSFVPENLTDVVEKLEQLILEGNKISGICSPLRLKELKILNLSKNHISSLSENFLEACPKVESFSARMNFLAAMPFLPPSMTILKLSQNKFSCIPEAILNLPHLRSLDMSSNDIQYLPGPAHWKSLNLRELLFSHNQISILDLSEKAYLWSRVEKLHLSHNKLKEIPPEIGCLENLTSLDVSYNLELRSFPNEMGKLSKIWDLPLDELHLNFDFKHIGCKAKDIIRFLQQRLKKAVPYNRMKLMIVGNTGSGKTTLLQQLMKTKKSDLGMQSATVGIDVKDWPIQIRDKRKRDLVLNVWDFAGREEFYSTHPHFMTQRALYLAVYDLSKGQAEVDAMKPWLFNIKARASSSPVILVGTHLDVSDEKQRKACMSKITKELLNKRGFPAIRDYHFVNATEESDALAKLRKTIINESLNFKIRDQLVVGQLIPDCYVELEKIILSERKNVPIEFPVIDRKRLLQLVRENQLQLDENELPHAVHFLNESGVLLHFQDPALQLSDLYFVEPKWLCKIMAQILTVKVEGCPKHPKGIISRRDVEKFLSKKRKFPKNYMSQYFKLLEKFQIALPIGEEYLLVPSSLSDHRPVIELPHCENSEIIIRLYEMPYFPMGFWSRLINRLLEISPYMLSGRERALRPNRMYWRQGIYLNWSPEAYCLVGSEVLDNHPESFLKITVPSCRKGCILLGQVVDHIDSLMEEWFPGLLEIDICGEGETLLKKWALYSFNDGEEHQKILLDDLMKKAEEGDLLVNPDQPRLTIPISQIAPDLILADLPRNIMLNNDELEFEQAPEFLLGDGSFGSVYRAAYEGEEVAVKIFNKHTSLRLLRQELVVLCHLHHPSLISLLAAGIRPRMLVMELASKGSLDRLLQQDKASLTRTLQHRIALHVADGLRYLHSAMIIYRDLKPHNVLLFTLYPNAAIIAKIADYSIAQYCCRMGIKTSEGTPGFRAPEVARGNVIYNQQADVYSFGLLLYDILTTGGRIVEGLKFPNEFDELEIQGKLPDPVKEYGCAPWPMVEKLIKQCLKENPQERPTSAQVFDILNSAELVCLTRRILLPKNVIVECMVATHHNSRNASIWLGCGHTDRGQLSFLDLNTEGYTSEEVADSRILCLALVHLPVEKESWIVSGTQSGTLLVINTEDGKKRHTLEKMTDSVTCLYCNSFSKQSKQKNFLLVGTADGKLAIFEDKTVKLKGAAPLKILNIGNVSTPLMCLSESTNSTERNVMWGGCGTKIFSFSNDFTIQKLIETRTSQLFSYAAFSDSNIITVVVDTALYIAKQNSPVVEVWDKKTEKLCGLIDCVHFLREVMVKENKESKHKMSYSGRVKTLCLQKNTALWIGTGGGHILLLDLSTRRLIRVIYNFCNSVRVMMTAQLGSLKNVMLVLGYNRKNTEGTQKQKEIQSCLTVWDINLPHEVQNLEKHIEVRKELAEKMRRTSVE
# Protocol details: scanMAX Kinase panel (DiscoverX), % control
# Format: binding
# Parameters: purchased DiscoverX
# Stated conditions: <35% = active
Measure name: remaining binding at 1 µM (%)

Smiles representation	Measure name	Recorded measurement
CCCNc1cc(Nc2ccc(C(=O)N3CCC(N4CCOCC4)CC3)c3c2OCCO3)nc2[nH]cc(C(F)(F)F)c12	remaining binding at 1 µM	0.35
CCNc1cc(Nc2ccc(S(=O)(=O)N3CCC(N4CCOCC4)CC3)c3c2OCCO3)nc2[nH]cc(C(F)(F)F)c12	remaining binding at 1 µM	1.9
CNc1cc(Nc2ccc(C(=O)N3CC[C@H](N4CCOCC4)C3)c3c2OCC3)nc2[nH]cc(C(F)(F)F)c12	remaining binding at 1 µM	1
CCNc1cc(Nc2ccc(P3(=O)CCN(C4CC4)CC3)cc2OC)nc2[nH]cc(C(F)(F)F)c12	remaining binding at 1 µM	28

---

pIC50: −log10 of the molar value. Where a name gives a salt, the structure may show the parent alone.
// each record: one item and its pIC50 for LRRK2 (Homo sapiens, UniProt Q5S007)
Measure name: pIC50

Molecule	Recorded measurement
CNc1cc(Nc2ccc(S(=O)(=O)N3CCOCC3)cc2OC)nc2[nH]cc(C#N)c12 [Example 131]	> 7.00
CNc1cc(Nc2ccc(P3(=O)CCN(C4CCOCC4)CC3)cc2OC)nc2[nH]cc(C(F)(F)F)c12 [Example 216]	6.52 to 7.00
COc1cc(S(=O)(=O)N2CCOCC2)ccc1Nc1cc(NC2CCCCC2)c2c(Cl)c[nH]c2n1 [Example 70]	6.00 to 6.52
COc1cc(P2(=O)CCN(C3CC3)CC2)ccc1Nc1cc(C2CC2)c2c(C(F)(F)F)c[nH]c2n1 [Example 218]	> 7.00
O=C(c1ccc(Nc2cc(NC3CC3)c3c(C(F)(F)F)c[nH]c3n2)c2c1OCCO2)N1CCOCC1 [Example 155, trifluoroacetate]	> 7.00
CCNc1cc(Nc2ccc(C(=O)N3CCOCC3)c3c2OCC3)nc2[nH]cc(C(F)(F)F)c12 [Example 89]	> 7.00
CCNc1cc(Nc2ccc(C(=O)N3CCC(N4CCOCC4)CC3)c3c2OCCO3)nc2[nH]cc(C#N)c12 [Example 113]	> 7.00
CS(=O)(=O)CCNc1cc(Nc2ccc(C(=O)N3CCOCC3)c3c2OCCO3)nc2[nH]cc(C(F)(F)F)c12 [Example 157]	> 7.00
N#Cc1c[nH]c2nc(Nc3ccc(C(=O)N4CCOCC4)c4c3OCCO4)cc(C3CC3)c12 [Example 225]	> 7.00
COCCNc1cc(Nc2ccc(S(=O)(=O)N3CCOCC3)cc2OC)nc2[nH]cc(C(F)(F)F)c12 [Example 195]	6.00 to 6.52
N#Cc1c[nH]c2nc(Nc3ccc(C(=O)N4CCC(N5CCOCC5)CC4)c4c3OCCO4)cc(NC3CC3)c12 [Example 116]	> 7.00
CCNc1cc(Nc2ccc(P3(=O)CCN(C4CC4)CC3)cc2OC)nc2[nH]cc(C#N)c12 [Example 147]	> 7.00
COCCNc1cc(Nc2ccc(P3(=O)CCN(C4CCOCC4)CC3)cc2OC)nc2[nH]cc(C(F)(F)F)c12 [Example 95]	6.52 to 7.00
COc1cc(S(C)(=O)=O)ccc1Nc1cc(NC2CCC2)c2c(C#N)c[nH]c2n1 [Example 120]	> 7.00
COc1cc(S(=O)(=O)N2CCC(N3CCOCC3)CC2)ccc1Nc1cc(NC2CC2)c2c(C#N)c[nH]c2n1 [Example 134]	> 7.00
COCCNc1cc(Nc2ccc(S(=O)(=O)N3CCC(N4CCOCC4)CC3)c3c2OCCO3)nc2[nH]cc(C(F)(F)F)c12 [Example 97]	> 7.00
CCNc1cc(Nc2ccc(C(=O)N3CCC(N4CCOCC4)CC3)c3c2OCC3)nc2[nH]cc(C(F)(F)F)c12 [Example 90]	> 7.00
CCNc1cc(Nc2ccc(P3(=O)CCN(C(C)=O)CC3)cc2OC)nc2[nH]cc(C(F)(F)F)c12 [Example 42]	> 7.00
N#Cc1c[nH]c2nc(Nc3ccc(C(=O)N4CCC(N5CCOCC5)CC4)c4c3OCCO4)cc(C3CC3)c12 [Example 226]	> 7.00
CNc1cc(Nc2ccc(S(=O)(=O)N3CCOCC3)c3c2OCCO3)nc2[nH]cc(C(F)(F)F)c12 [Example 98]	6.52 to 7.00
O=C(c1ccc(Nc2cc(NC3CC3)c3c(C(F)(F)F)c[nH]c3n2)c2c1OCCO2)N1CCC(N2CCOCC2)CC1 [Example 163]	> 7.00
CCNc1cc(Nc2ccc(P(C)(=O)O)cc2OC)nc2[nH]ccc12 [Example 32]	6.00 to 6.52
COc1cc(S(C)(=O)=O)ccc1Nc1cc(NCC(C)C)c2cc[nH]c2n1 [Example 29]	> 7.00
CCNc1cc(Nc2ccc(C(=O)N3CCN(C4COC4)CC3)c3c2OCCO3)nc2[nH]cc(C(F)(F)F)c12 [Example 173]	> 7.00
COCCNc1cc(Nc2ccc(C(=O)N3CCOCC3)c3c2OCC3)nc2[nH]cc(C(F)(F)F)c12 [Example 54]	> 7.00
O=C(c1ccc(Nc2cc(C3CC3)c3c(C(F)(F)F)c[nH]c3n2)c2c1OCCO2)N1CCC(N2CCOCC2)CC1 [Example 221]	6.52 to 7.00
COCCNc1cc(Nc2ccc(S(=O)(=O)N3CCOCC3)cc2OC)nc2[nH]cc(C#N)c12 [Example 129]	> 7.00
COc1cc(S(=O)(=O)N2CCC(N3CCOCC3)CC2)ccc1Nc1cc(NCC(C)C)c2c(C(F)(F)F)c[nH]c2n1 [Example 191]	6.52 to 7.00
COc1cc(P2(=O)CCN(C(C)=O)CC2)ccc1Nc1cc(C2CC2)c2c(C(F)(F)F)c[nH]c2n1 [Example 48]	6.00 to 6.52
CCOc1cc(Nc2ccc(C(=O)N3CCOCC3)c3c2OCCO3)nc2[nH]cc(C(F)(F)F)c12 [Example 231]	> 7.00
